Data origin, for the record: PubChem BioAssay (NCI)

testName: NCI Yeast Anticancer Drug Screen. Data for the rad50 strain (AID 155);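 also: 0% = growth of vehicle-only cultures of the same strain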
experimentalContext: S. cerevisiae rad50 strain growth inhibition; at 5.0 µM (retest, dose inferred, filed as 0.5); active compounds read high
About 79,000 compounds went through this panel and 15% of them were active in at least one assay; those are over-represented in the sample as a whole.
experimentalEndpoint: growth inhibition (%)
Field: numeric (%). Do not append units.

Examples from the recorded data:
{"compound": "O=C1CC2CCCC(C1)N2Cc1ccccc1", "growth inhibition (%)": 2}
{"compound": "CC(=O)Nc1c2sscc-2n(C)c1=O", "growth inhibition (%)": 98}
{"compound": "O=C([O][Hg][CH2]C1COC([CH2][Hg][O]C(=O)c2ccccc2)CO1)c1ccccc1 (stereo not given)", "growth inhibition (%)": 98}
{"compound": "C[CH2][Pb]([CH2]C)([CH2]C)[O]C(C)=O", "growth inhibition (%)": 33}

Proceed to the following item.
Answer with reported growth inhibition of O=C(O)C1CC2c3ccccc3C1([N+](=O)[O-])c1ccccc12 (stereo not given)
0
